Taken from PubChem BioAssay (EPA / NIEHS).

- experiment-summary: APR_HepG2_CellLoss_24hr: Apredica 24-hour HepG2 Assay for Cell Loss (AID 2282908)
- test-settings: high-content imaging
Active and inactive are the calls of the source. The calls were made as follows: active = hit-call score of the fitted dose curve at least 0.9, where 1 is the maximum; inactive = score below 0.9.
// one of active, inactive, no free text

- compound: "Cc1nn(-c2cc(NS(C)(=O)=O)c(Cl)cc2Cl)c(=O)n1C(F)F"
  label-class: "inactive"
- compound: "CCCOCC(=Nc1ccc(Cl)cc1C(F)(F)F)n1ccnc1"
  label-class: "inactive"
- compound: "S=C1NCCN1"
  label-class: "inactive"
- compound: "CCCCOC(=O)[C@@H](C)Oc1ccc(Oc2ccc(C#N)cc2F)cc1"
  label-class: "inactive"
- compound: "CC[C@H](C)[C@H]1O[C@]2(C=C[C@@H]1C)C[C@@H]1C[C@@H](C/C=C(\\C)[C@@H](O[C@H]3C[C@H](OC)[C@@H](O[C@H]4C[C@H](OC)[C@@H](NC)[C@H](C)O4)[C@H](C)O3)[C@@H](C)/C=C/C=C3\\CO[C@@H]4[C@H](O)C(C)=C[C@@H](C(=O)O1)[C@]34O)O2"
  label-class: "active"
- compound: "C#CC(C)(C)NC(=O)c1cc(Cl)cc(Cl)c1"
  label-class: "inactive"
- compound: "CCc1cccc(C)c1N(C(=O)CCl)C(C)COC (stereo not given)"
  label-class: "inactive"
- compound: "Nc1nc(N)nc(NC2CC2)n1"
  label-class: "inactive"

Please indicate how the test categorized COP(=O)(OC)OC(Br)C(Cl)(Cl)Br (stereo not given) .
active

Please indicate how the test categorized CCCSP(=O)(OCC)Oc1ccc(Br)cc1Cl (stereo not given) .
active
